Test system: K-562 leukemia
test-method-notes: NCI tumour cell line growth inhibition, 48 h
measure-name: TGI

Past entries and their recorded results:
COc1cc2cnc3c4cc(OC(C)C)c(OC)cc4ccc3c2cc1OC | > 100 µM
CSc1ccc(/C=C2\CN(C)C/C(=C\c3ccc(SC)cc3)C2=O)cc1 | > 100 µM
CCCN(CCC)CCc1ccc(OC2=CCN(C)CC2)cc1 | > 100 µM

Batch lookup, TGI per entry.
1. O=C1C=Cc2c(Br)sc(Br)c21
2. CCOC(=O)COc1cccc2c1C(=O)CCO2
3. Cn1c(=O)c2c3ccccc3n(C)c2n(C)c1=O
4. C=CC[C@H]1O[Si](C(C)(C)C)(C(C)(C)C)[C@H](C)[C@H]1C
5. C[C@@H](CS(C)(=O)=O)Nc1ncc2cc(Oc3ccc(F)cc3F)c(=O)n(C)c2n1
6. Cc1nnc2n1N=C(c1ccccc1)/C(=C/c1ccc(-c3ccc(Cl)cc3)o1)S2

1: 54.5 µM; 2: > 100 µM; 3: > 100 µM; 4: > 100 µM; 5: > 25 µM; 6: 47.4 µM
